Values were extracted from PubChem BioAssay (NCATS).

experiment: NFAT Signaling Pathway (AID 444); settings: Jurkat NFAT-bla M1, carbachol, beta-lactamase ratio, 5 h; at 38 µM (top of the series) unless noted;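 note: carbachol stimulus at about its EC50 of 1 µM final; % is set by controls: 0 for no effect and ±100 for the full control effect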
Results filed as inconclusive are left out. Active and inactive are the calls of the source. Calls come from the whole dose curve; as a rule, active = well fitted curve in either direction with a large enough effect (not every such curve was filed as active); inconclusive = small, poorly fitted or top-dose-only effect, or another doubt; inactive = flat fitted curve, though single readings scatter.
recorded metric: activity change, negative = inhibition

Use these answered entries as a reference point.
chemical_structure=O=c1[nH]c(=S)[nH]c(-c2ccccc2)c1Cc1c(O)ccc2ccccc12 recorded_metric="activity change, negative = inhibition" result="15.8% [at 7.69 µM] (inactive)"
chemical_structure=Cn1c(=O)c2[nH]c(C3CCCC3)nc2n(C)c1=O recorded_metric="activity change, negative = inhibition" result="3.19% (inactive)"
chemical_structure=COc1ccccc1N1CCN(CCCNc2c(C)c(=O)n(C)c(=O)n2C)CC1 recorded_metric="activity change, negative = inhibition" result="-22.9% (inactive)"
chemical_structure=O=[N+]([O-])c1cccc2c(Br)[nH]nc12 recorded_metric="activity change, negative = inhibition" result="-9.63% (inactive)"
chemical_structure=CCC(=O)N1CCN(C(=O)c2ccccc2)CC1 recorded_metric="activity change, negative = inhibition" result="3.73% (inactive)"
chemical_structure=COc1ccccc1N1CCN(CCCCN2C(=O)c3ccccc3C2=O)CC1 recorded_metric="activity change, negative = inhibition" result="-20.4% (inactive)"
chemical_structure=N=C(N)SCCN recorded_metric="activity change, negative = inhibition" result="-0.506% (inactive)"
chemical_structure=Cc1cc2c(cc1Cl)N(C(=O)Nc1ccnc3ccccc13)CC2 recorded_metric="activity change, negative = inhibition" result="4.5% (inactive)"
chemical_structure=COc1ccccc1N1CCN(CCN(C(=O)c2ccc(F)cc2)c2ccccn2)CC1 recorded_metric="activity change, negative = inhibition" result="-0.748% (inactive)"
chemical_structure=N#C/C(=C\c1ccc(O)c(O)c1)C(=O)NCCCNC(=O)/C(C#N)=C/c1ccc(O)c(O)c1 recorded_metric="activity change, negative = inhibition" result="7.05% (inactive)"

Now examine the next entry.
So, O=C(O)C1CCNCC1 ? Its activity change, negative = inhibition was 11.3% (inactive)

---

test: qHTS Assay for Lipid Storage Modulators (AID 1519); conditions: Drosophila S3 cells, BODIPY lipid droplet/cell ratio, laser cytometry; measured here: lipid channel max response; cells loaded with oleic acid
Results filed as inconclusive are left out.
Some compounds, each annotated with its measured max response.
The figure you give is taken to be in %; do not add the unit.

Use these answered entries as a reference point.
compound=O=c1cc(-c2ccccc2)[nH]c2nc(Cl)ccc12 measured_number=65
compound=N[C@H](C(=O)O)[C@H](O)C(=O)O measured_number=-6.36
compound=CC[N+](CC)(CC)CC(=O)Nc1c(C)cccc1C measured_number=2.48

Now examine the next entry.
So, CN1CCN(c2nc3cc(C(F)(F)F)ccc3n3cccc23)CC1 ? Its max response was 20.6

---

molecular target: Cytochrome P450 1A2 (Homo sapiens) (UniProt P05177); assay: p450-cyp1a2 (AID 410); settings: recombinant CYP1A2, luciferin-ME demethylation, luminescence; series mostly up to 57 µM
Sequence (P05177 whole entry, looked up): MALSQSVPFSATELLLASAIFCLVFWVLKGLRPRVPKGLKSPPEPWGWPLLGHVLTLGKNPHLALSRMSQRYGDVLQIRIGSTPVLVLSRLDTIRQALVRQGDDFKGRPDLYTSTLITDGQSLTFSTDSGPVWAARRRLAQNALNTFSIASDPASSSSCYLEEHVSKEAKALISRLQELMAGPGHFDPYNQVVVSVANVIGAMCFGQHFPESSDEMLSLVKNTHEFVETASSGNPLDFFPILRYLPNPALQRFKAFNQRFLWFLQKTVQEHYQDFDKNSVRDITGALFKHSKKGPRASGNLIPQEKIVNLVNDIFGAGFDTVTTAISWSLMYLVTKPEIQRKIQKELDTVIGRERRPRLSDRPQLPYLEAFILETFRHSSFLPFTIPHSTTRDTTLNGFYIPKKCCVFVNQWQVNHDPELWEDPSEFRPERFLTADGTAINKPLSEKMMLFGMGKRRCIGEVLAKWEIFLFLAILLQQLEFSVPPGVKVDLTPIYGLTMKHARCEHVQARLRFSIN
Records with an inconclusive call do not appear. Activity calls are given as the source filed them. Calls come from the whole dose curve.
Reply using exactly one outcome from active, inactive

chemical_structure=O=c1[nH]c2ccccc2c2ccccc12 discrete_label=active
chemical_structure=O=c1[nH]c2cc(Cl)ccc2c(O)c1-c1ccc(Oc2ccccc2)cc1 discrete_label=active
chemical_structure=CCCn1c(=O)c2c(ncn2C)n(CCC)c1=O discrete_label=active
chemical_structure=NC(=Nc1ccccc1)NC(=O)c1nc(Cl)c(N)nc1N discrete_label=active

Prompt: Recorded call for O=c1[nH]c(=S)[nH]c(-c2ccccc2)c1Cc1c(O)ccc2ccccc12 ?
Response: active

---

target: D(1A) dopamine receptor (Homo sapiens); assay: HTS Assay for Allosteric Agonists of the Human D1 Dopamine Receptor: Primary Screen for Antagonists (AID 488983); details: D1 receptor cell assay, antagonist mode, qHTS titration; series mostly up to 41.8 µM;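 note: calcium flux response to an EC80 dopamine challenge measured with no-wash dye; nearly all actives have a fitted effect of over 65% in size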
Records with an inconclusive call do not appear. Active and inactive are the calls of the source. Calls follow the shape of the dose curve; as a rule, active = well fitted inhibition curve with a large enough effect; inconclusive = small, poorly fitted or top-dose-only effect, or effect the other way; inactive = flat fitted curve, though single readings scatter.
Reply using exactly one outcome from active, inactive

compound=N#C/C(=C\c1ccc(O)c(O)c1)C(=O)NCCCNC(=O)/C(C#N)=C/c1ccc(O)c(O)c1 system="D(1A) dopamine receptor (Homo sapiens)" discrete_label=inactive

Prompt: Recorded call for Cc1cc2c(cc1Cl)N(C(=O)Nc1ccnc3ccccc13)CC2 ?
Response: inactive

Prompt: Recorded call for CC[n+]1c(/C=C/C=C2/N(C)c3ccccc3C2(C)C)sc2ccccc21 ?
Response: inactive

Prompt: Recorded call for CC(N)(Cc1ccc(O)cc1)C(=O)O (configuration not stated) ?
Response: inactive

Prompt: Recorded call for C#CCn1c(=O)c2c(ncn2C)n(C)c1=O ?
Response: inactive

Prompt: Recorded call for COc1ccc(-c2cc3ncc(C)n3c(Nc3ncccc3C(N)=O)n2)cc1OC ?
Response: inactive

Prompt: Recorded call for N[C@@H](Cc1ccc(O)c(I)c1)C(=O)O ?
Response: inactive

Prompt: Recorded call for O=C(O)c1cc(=O)cc(C(=O)O)[nH]1 ?
Response: inactive

Prompt: Recorded call for CN1Cc2sccc2C(c2ccc(O)c(O)c2)C1 (configuration not stated) ?
Response: active

Prompt: Recorded call for Nc1ccc2c3c(cccc13)C(=O)NC2=O ?
Response: inactive

Prompt: Recorded call for CCC(=O)N1CCN(C(=O)c2ccccc2)CC1 ?
Response: inactive

Prompt: Recorded call for C=CC1(C)CC(=O)C2(O)C(C)(O1)C(OC(C)=O)C(O)C1C(C)(C)CCC(O)C12C (configuration not stated) ?
Response: inactive

Prompt: Recorded call for CN(C)CCCc1cc(C(=O)Nc2ccc(-c3ccncc3)cc2)ccc1O ?
Response: inactive

Prompt: Recorded call for CC(=O)/C(C)=N/O ?
Response: inactive

Prompt: Recorded call for Cn1cc(C(F)(F)F)nc1-c1ccc(OCC(O)CNCCOc2ccc(O)c(C(N)=O)c2)cc1 (configuration not stated) ?
Response: inactive

Prompt: Recorded call for Cn1c(=O)c2c(nc(/C=C/c3cccc(Cl)c3)n2C)n(C)c1=O ?
Response: inactive

Prompt: Recorded call for c1ccc2nc(C3=NCCN3)ccc2c1 ?
Response: inactive

---

target: Cytochrome P450 3A4 (Homo sapiens); test: qHTS Assay for Activators of Cytochrome P450 3A4 (AID 885); conditions: recombinant CYP3A4, Luciferin-PPXE luminescence, 60 min; series mostly up to 57.1 µM; note: nearly all actives have a fitted effect of over 65% in size
The source made the active and inactive calls. The call rests on the fitted dose curve; in most records, active means well fitted activation curve with a large enough effect; inconclusive means small, poorly fitted or top-dose-only effect; inactive means no such curve, though single readings can be large or run the other way.
Reply using exactly one outcome from Y = active, N = inactive

Prompt: Recorded call for NC(N)=NC(N)=Nc1cccc(Cl)c1 ?
Response: N

Prompt: Recorded call for Cc1ccc([N+](=O)[O-])cc1S(=O)(=O)N(C)C ?
Response: N

Prompt: Recorded call for O=C(O)c1ccccc1Nc1ccccc1 ?
Response: N

Prompt: Recorded call for Nc1ccc2c3c(cccc13)C(=O)NC2=O ?
Response: N

Prompt: Recorded call for COc1cc(N)c(Cl)cc1C(=O)OCCN1CCCCC1 ?
Response: N

Prompt: Recorded call for S=C(S)N1CCCC1 ?
Response: N

---

assay: qHTS Assay for Identifying Gametocytocidal Compounds (AID 743244);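 note: % is set by controls: 0 for no effect and ±100 for the full control effect; actives lower the fluorescent signal which means gametocytes are killed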; conditions: P. falciparum 3D7 stage III-V gametocytes, alamarBlue, 72 h; stronger effect = lower value
Results filed as inconclusive are left out.
recorded metric: max response (%)
The figure you give is taken to be in %; do not add the unit.

compound=Cc1nc(N=Nc2ccc(S(=O)(=O)O)cc2S(=O)(=O)O)c(COP(=O)(O)O)c(C=O)c1O recorded_metric="max response" measured_number=14.8
compound=C=CCn1c(=O)c2c(nc(-c3ccc(S(=O)(=O)O)cc3)n2C)n(C)c1=O recorded_metric="max response" measured_number=2.53
compound=NC(=O)c1cc[n+](CC2=C(C(=O)O)N3C(=O)[C@@H](NC(=O)[C@@H](c4ccccc4)S(=O)(=O)[O-])[C@H]3SC2)cc1 recorded_metric="max response" measured_number=7.28
compound=NC(N)=N[C@@H](CCC(=O)O)C(=O)O recorded_metric="max response" measured_number=-1.42
compound="O=C(O)CCC(=O)N1CCCC1C(=O)O (stereo not given)" recorded_metric="max response" measured_number=-8.08
compound=COc1ccc(-c2ccc(N)[n+](CCCC(=O)O)n2)cc1 recorded_metric="max response" measured_number=23.8

So, OCC1NCC(O)C(O)C1O (stereo not given) ? Its max response was 29.9

So, O=c1ccn([C@@H]2O[C@H](COP(=O)(O)OP(=O)(O)O)[C@@H](O)[C@H]2O)c(=O)[nH]1 ? Its max response was 17.2

So, Nc1nc2c(nc(Br)n2C2OC3COP(=O)(O)O[C@@H]3C2O)c(=O)[nH]1 (stereo not given in full) ? Its max response was 9.58

So, CC(C)C[C@H](NC(=O)[C@H](O)[C@H](N)Cc1ccccc1)C(=O)O ? Its max response was 2.38

So, O=C1OC(=O)C2C3CCC(O3)C12 (stereo not given) ? Its max response was 26.3

---

molecular target: Chromobox protein homolog 1 (Homo sapiens); test: qHTS Validation Assay for Inhibitors of HP1-beta Chromodomain Interactions with Methylated Histone Tails (AID 488953); details: HP1-beta chromodomain / methylated histone peptide binding assay; series mostly up to 114 µM; note: nearly all actives have a fitted effect of over 50% in size
Inconclusive results are not listed. Active and inactive are the calls of the source. Calls come from the whole dose curve; as a rule, active = well fitted inhibition curve with a large enough effect; inconclusive = small, poorly fitted or top-dose-only effect; inactive = no such curve, though single readings can be large or run the other way.
Reply using exactly one outcome from T for active, F for inactive

molecule="CSc1nc(N)c2ncn([C@@H]3O[C@H](COP(=O)(O)OP(=O)(O)O)C(O)[C@H]3O)c2n1 (stereo partly specified)" system="Chromobox protein homolog 1 (Homo sapiens)" discrete_label=F

Prompt: Recorded call for O=C(O)c1cc2cc(F)ccc2[nH]1 ?
Response: F

Prompt: Recorded call for [N-]=[N+]=Nc1ccc(C(=O)CSC[C@H](NC(=O)CC[C@H](N)C(=O)O)C(=O)NCC(=O)O)cc1 ?
Response: T

Prompt: Recorded call for CC(N)(C(=O)O)c1ccc(C(=O)O)cc1 (stereo unspecified) ?
Response: F

Prompt: Recorded call for O=C(O)C1=CCNCC1 ?
Response: F

Prompt: Recorded call for NC(N)=N[C@@H](CCC(=O)O)C(=O)O ?
Response: F

Prompt: Recorded call for CC(C)[C@@H]1CC[C@@H](C)C[C@@H]1P(=O)(c1ccccc1)c1ccccc1 ?
Response: F
